target-or-system: T1, Rluc-ADGRG2-ΔGPS-β L665A (mouse, UniProt Q8CJ12-3 38-995, L665A)
T1 construct: ADGRG2 (GPR64), mouse, ADGRG2-ΔGPS-β: the entire ECD removed; source: HEK293, transfected, on cells; not shown: Rluc, N-terminal, kept
T1 sequence (Q8CJ12 other isoform, or with tags, fused parts or gaps L665A | L665A | L665A L665A): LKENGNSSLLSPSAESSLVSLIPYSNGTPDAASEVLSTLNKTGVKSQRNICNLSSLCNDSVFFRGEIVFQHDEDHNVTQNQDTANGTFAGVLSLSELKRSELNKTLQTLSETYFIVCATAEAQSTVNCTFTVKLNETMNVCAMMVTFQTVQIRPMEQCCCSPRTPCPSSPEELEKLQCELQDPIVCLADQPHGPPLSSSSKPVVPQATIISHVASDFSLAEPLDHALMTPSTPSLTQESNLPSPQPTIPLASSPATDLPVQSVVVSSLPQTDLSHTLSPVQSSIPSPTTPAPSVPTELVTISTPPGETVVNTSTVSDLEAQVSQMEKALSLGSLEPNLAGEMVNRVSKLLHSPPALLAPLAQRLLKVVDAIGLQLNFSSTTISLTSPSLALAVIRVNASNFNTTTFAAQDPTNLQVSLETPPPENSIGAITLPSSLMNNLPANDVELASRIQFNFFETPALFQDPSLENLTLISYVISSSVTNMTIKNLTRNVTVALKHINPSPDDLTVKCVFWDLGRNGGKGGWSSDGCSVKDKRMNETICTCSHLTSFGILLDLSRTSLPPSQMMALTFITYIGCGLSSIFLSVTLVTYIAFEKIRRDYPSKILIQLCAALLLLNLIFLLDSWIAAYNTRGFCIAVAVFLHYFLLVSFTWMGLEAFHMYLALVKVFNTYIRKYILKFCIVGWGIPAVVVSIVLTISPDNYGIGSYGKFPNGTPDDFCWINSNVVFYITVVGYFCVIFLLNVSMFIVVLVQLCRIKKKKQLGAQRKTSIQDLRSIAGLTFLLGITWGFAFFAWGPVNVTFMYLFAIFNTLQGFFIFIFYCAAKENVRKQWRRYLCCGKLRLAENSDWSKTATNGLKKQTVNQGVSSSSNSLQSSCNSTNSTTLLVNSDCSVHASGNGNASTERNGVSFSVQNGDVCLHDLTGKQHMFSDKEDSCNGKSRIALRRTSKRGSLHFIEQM
assay-name: FRET or BRET; HEK293 cells transfected with Rluc-ADGRG2-ΔGPS-β WT or mutants, stimulated by increasing concentrations of FITC-conjugated VPM-p15; saturation curves fitted with GraphPad; each experiment repeated 6 times
protocol-conditions: one partner purified
Non-standard residues stand in square brackets, D forms with d. Primed or numbered codes have the meaning given here. No end group written: not given here. Phe(4-Me) = Cc1ccc(C[C@H](N)C(=O)O)cc1; FITC′ = not defined here
measure-name: pEC50
Answers are plain numbers, as −log10 of the molar value.

Which pEC50 is reported for this binder? VS[Phe(4-Me)]GILLDLSRTSLP-{FITC′} [FITC-conjugated VPM-p15 (ADGRG2 Stachel peptide p15 T1V/F3Phe(4-Me))]
6.10

Entry source: paper PMC7948503
